Target: PRMT5/MEP50 complex (Homo sapiens)
Sequence (O14744 whole entry): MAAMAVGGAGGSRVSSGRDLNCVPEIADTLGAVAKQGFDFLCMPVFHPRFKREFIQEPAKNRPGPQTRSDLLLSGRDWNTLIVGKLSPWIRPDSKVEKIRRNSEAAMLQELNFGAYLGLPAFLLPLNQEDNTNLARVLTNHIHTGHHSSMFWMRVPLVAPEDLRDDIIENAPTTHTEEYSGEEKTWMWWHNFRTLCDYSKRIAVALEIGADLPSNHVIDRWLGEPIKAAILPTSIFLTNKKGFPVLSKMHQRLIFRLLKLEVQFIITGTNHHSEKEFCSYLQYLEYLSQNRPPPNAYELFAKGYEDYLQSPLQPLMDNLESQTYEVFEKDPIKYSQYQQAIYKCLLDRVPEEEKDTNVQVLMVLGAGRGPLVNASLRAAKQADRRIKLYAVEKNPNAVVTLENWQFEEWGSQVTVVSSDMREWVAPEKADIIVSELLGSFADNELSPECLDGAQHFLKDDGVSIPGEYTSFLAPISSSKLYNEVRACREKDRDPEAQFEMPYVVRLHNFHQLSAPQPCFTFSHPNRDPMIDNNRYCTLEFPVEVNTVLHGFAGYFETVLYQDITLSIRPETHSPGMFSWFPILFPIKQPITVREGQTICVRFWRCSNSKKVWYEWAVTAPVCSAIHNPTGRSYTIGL
Sequence (Q9BQA1 whole entry, further chain): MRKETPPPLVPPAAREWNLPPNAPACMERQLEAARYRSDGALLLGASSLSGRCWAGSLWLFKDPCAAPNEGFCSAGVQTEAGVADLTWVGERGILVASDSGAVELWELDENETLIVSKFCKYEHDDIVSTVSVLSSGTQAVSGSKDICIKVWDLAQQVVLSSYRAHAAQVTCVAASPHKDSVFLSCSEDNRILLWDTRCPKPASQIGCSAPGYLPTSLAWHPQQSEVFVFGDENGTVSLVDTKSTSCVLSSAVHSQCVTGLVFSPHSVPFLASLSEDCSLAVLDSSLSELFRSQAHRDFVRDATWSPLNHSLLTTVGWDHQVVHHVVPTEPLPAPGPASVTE
Test: Inhibition of recombinant human N-terminal FLAG-tagged PRMT5 (2 to end residues) /human N-terminal His-tagged MEP50 (2 to end residues) expressed in HEK293F cells using histone H4 as substrate preincubated for 15 mins followed by substrate/S-adenosyl methionine addition measured after 60 mins by alpha LISA assay
Set-up: species or system HEK293
MEASUREMENT KIND: IC50

CCOC(=O)c1ccccc1NC(=O)CSc1nc2cc(OC)ccc2[nH]1 ... 1.9 µM
COC(=O)c1ccc(NC(=O)CSc2nc3cc(OC)ccc3[nH]2)cc1 ... > 100 µM
COC(=O)c1ccccc1NC(=O)CSc1nc2cc(O)ccc2[nH]1 ... > 100 µM
COc1ccc2[nH]c(SCC(=O)Nc3ccccc3C(=O)N(C)C)nc2c1 ... > 200 µM
COc1ccc2[nH]c(SCC(=O)Nc3ccccc3N(C)C)nc2c1 ... 25 µM
COc1ccc2[nH]c(SCC(=O)Nc3ccccc3C(=O)O)nc2c1 ... > 100 µM
CCOc1ccc2[nH]c(SCC(=O)Nc3ccccc3C(=O)OC)nc2c1 ... 0.35 µM
COc1ccc2[nH]c(SCC(=O)Nc3ccccc3OC)nc2c1 ... 19 µM
COC(=O)c1ccccc1NC(=O)CSc1nc2cc(Cl)ccc2[nH]1 ... 0.5 µM
COC(=O)c1ccccc1NC(=O)CSc1nc2c(Cl)cccc2[nH]1 ... > 100 µM
COC(=O)c1ccccc1NC(=O)CSc1nc2c(OC)cccc2[nH]1 ... > 100 µM
CNC(=O)c1ccccc1NC(=O)CSc1nc2cc(OC)ccc2[nH]1 ... > 200 µM
OCCNCc1c(OCc2ccccc2F)ccc2ccccc12 ... 18 µM
COC(=O)c1ccccc1NC(=O)CSc1nc2ccncc2[nH]1 ... 87 µM
CCCOc1ccc2[nH]c(SCC(=O)Nc3ccccc3C(=O)OC)nc2c1 ... 0.53 µM
COc1ccc2[nH]c(SCC(=O)Nc3ccccc3Cl)nc2c1 ... 47 µM
COC(=O)c1ccccc1NC(=O)CSc1nc2cc(N(C)C)ccc2[nH]1 ... 0.33 µM
COc1ccc2[nH]c(SCC(=O)Nc3ccccc3C)nc2c1 ... > 200 µM
COC(=O)c1ccccc1NC(=O)CSc1nc2cc(N)ccc2[nH]1 ... 40 µM
CNc1ccc2[nH]c(SCC(=O)Nc3ccccc3C(=O)OC)nc2c1 ... 1.6 µM
COC(=O)c1ccccc1NC(=O)CSc1nc2cc(OC(C)C)ccc2[nH]1 ... 2.8 µM
COC(=O)c1ccccc1NC(=O)CSc1nc2cc(Br)ccc2[nH]1 ... 0.34 µM
COC(=O)c1cccc(NC(=O)CSc2nc3cc(OC)ccc3[nH]2)c1 ... 52 µM

---

System: KOPN-8
Test: Cytotoxicity against human KOPN8 cells assessed as cell growth inhibition after 12 days by Cell Titer-Glo assay
Conditions: KOPN-8, 288 h
MEASUREMENT KIND: EC50

COC(=O)c1ccccc1NC(=O)CSc1nc2cc(OC)ccc2[nH]1 ... 15 to 70 µM

---

Target: PRMT5/MEP50 complex (Homo sapiens)
Assay: Inhibition of recombinant human N-terminal FLAG-tagged PRMT5 (2 to end residues)/human N-terminal His-tagged MEP50 (2 to end residues) expressed in HEK293F cells using histone H4 as substrate in presence of [3H]-SAM after 60 mins by chemiluminescent assay
Type: cell-based, HEK293
Conditions: in the assay text read “radioactive methylation assay” for “chemiluminescent assay”
pIC50: −log10 of the molar value.
Each entry below lists one item and its recorded pIC50 value.
MEASUREMENT KIND: pIC50

COC(=O)c1ccccc1NC(=O)CSc1nc2ccccc2[nH]1 ... 4.62
O=C(/C=C/c1ccc(-c2ccccc2[N+](=O)[O-])o1)c1ccccc1 ... 3.77
OCCNCc1c(OCc2ccccc2F)ccc2ccccc12 ... 3.76
